Data origin, for the record: patent US7378446B2

test: in vitro; type: cell-based; conditions: human; replicon cells, 3 days culture with compound, Cell Counting Kit 8, absorbance 450 nm; read-out: Cytotoxicity CC50
reported_endpoint: CC50

- compound: "C#CCOc1ccc(C[C@H](NC(=O)[C@@H](/C=C/CCCCCCC(=O)CCCCCCC)[C@@](O)(CC(=O)O)C(=O)O)C(=O)O)cc1 [Compound 105]"
  reported_endpoint: "CC50"
  reading: "> 1 µM"
- compound: "CCCCCCCC(=O)CCCCCC/C=C/[C@H](C(=O)N[C@@H](Cc1ccc(OCc2ccccc2)cc1)C(=O)O)[C@@](O)(CC(=O)O)C(=O)O [Compound 17]"
  reported_endpoint: "CC50"
  reading: "> 5 µM"
- compound: "CCCCCCCC(=O)CCCCCC/C=C/[C@H](C(=O)N[C@@H](Cc1ccc(Oc2ccccc2)cc1)C(=O)O)[C@@](O)(CC(=O)O)C(=O)O [Compound 15]"
  reported_endpoint: "CC50"
  reading: "> 5 µM"
- compound: "CCCCCCCC(=O)CCCCCC/C=C/[C@H](C(=O)N[C@@H](Cc1ccc(NS(C)(=O)=O)cc1)C(=O)O)[C@@](O)(CC(=O)O)C(=O)O [Compound 92]"
  reported_endpoint: "CC50"
  reading: "> 1 µM"
- compound: "CCCCCCCCCC(=O)CCCC/C=C/[C@H](C(=O)N[C@@H](Cc1ccc(OCCC(C)C)cc1)C(=O)O)[C@@](O)(CC(=O)O)C(=O)O [Compound 45]"
  reported_endpoint: "CC50"
  reading: "> 1 µM"
- compound: "CCCCCCCC(=O)CCCCCC/C=C/[C@H](C(=O)N[C@@H](Cc1cccnc1)C(=O)O)[C@@](O)(CC(=O)O)C(=O)O [Compound 97]"
  reported_endpoint: "CC50"
  reading: "> 1 µM"
